assay: NCI Yeast Anticancer Drug Screen. Data for the mlh1 rad18 strain (AID 175); details: S. cerevisiae mlh1 rad18 strain growth inhibition; at 50.0 µM; hits give high values
The panel holds about 79,000 compounds, 15% with a hit somewhere; the sample as a whole holds those more often.
Kindly supply the reported growth inhibition values for the records listed here.
One number for each entry, in %.

Completed entries (count: 4):
CC(C)OCN1COCN=C1NC#N ... 33
CN1C(c2ccccc2)=C(C#N)C(=O)CC(c2ccccc2)N1C (stereo not given) ... 21.2
CCc1ccc(N=Nc2c(F)c(F)c(N(C)C)c(F)c2F)cc1 ... -1.25
Nc1cc2c(cc1Br)-c1ccc(Br)cc1C2=O ... -5.25

Count: 2. Required value per item: growth inhibition.
1. COc1cc(C(=O)O)c(I)c(OC)c1OC
2. CC1OC(n2ccc(NC(=O)c3ccc(NC(=O)C(C)(N)CO)cc3)nc2=O)CCC1OC1OC(C)C(N(C)C)C(O)C1O (stereo not given)

A)
1: -9.65; 2: 28.8

Count: 4. Required value per item: growth inhibition.
1. O=C(Oc1ccc([N+](=O)[O-])cc1)C(CSC(c1ccccc1)(c1ccccc1)c1ccccc1)NC(c1ccccc1)(c1ccccc1)c1ccccc1 (stereo not given)
2. c1cc(Sc2nc(Sc3ccncc3)nc(Sc3ccncc3)n2)ccn1
3. O=S(=O)(O)c1ccccc1O
4. COc1nc2c(c(O)c(C)c(=O)n2OC2OCC(OC(C)=O)C(OC(C)=O)C2OC(C)=O)c(=O)n1C (stereo not given)

A)
23.9
-7.25
1.95
-20.8

====

test: NCI Yeast Anticancer Drug Screen. Data for the mlh1 rad18 strain (AID 175); conditions: S. cerevisiae mlh1 rad18 strain growth inhibition; at 50.0 µM; hits give high values
About 79,000 compounds went through this panel and 15% of them were active in at least one assay; those are over-represented in the sample as a whole.
measured_parameter: growth inhibition (%)
Numbers only, in %.

CN1CCC=C(C(C)(C)O)C1 ... 2.35
C[C@H](CCC(=O)O)[C@H]1CC[C@H]2[C@@H]3[C@@H](O)C[C@@H]4C[C@H](O)CC[C@]4(C)[C@H]3C[C@H](O)[C@]12C ... 7.8

Count: 4. Required value per item: growth inhibition.
1. CC(C)C(CN)(c1ccccc1)c1ccccc1
2. CC1=CC(C/C(C)=C/COc2ccc3ccc(=O)oc3c2)OC1=O (stereo unspecified)
3. CCOC(=O)C(=CN1CCCCCC1)C(=O)OCC
4. COc1ccc(C(C)S(=O)(=O)c2ccccc2)cc1OC (stereo unspecified)

A)
[-10.9, 7.75, 32.5, 5.5]

====

assay: NCI Yeast Anticancer Drug Screen. Data for the cln2 rad14 strain (AID 165);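 further: 0% = growth equal to vehicle treated cultures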; details: S. cerevisiae cln2 rad14 strain, at 50.0 µM, hits give high values
Compounds without any hit were thinned out: in the full panel of roughly 79,000, 15% have a hit.
Kindly supply the reported growth inhibition values for the records listed here.
One number for each entry, in %.

Completed entries (count: 5):
CN(C)Cc1c(CC(O)(c2ccccc2)c2ccccc2)ccc2ccccc12 ... -0.55
O=C(Nc1ccccc1)c1ccccc1Cl ... 2.8
CN(C)c1ccc(/C=N/NC(=S)Nc2cccc3cccnc23)cc1 ... 20.3
Clc1cccc2nsnc12 ... -49
CC(C)=CCNc1ccccc1 ... 17.4

Count: 2. Required value per item: growth inhibition.
1. O=C(O)c1ccc(B(O)O)cc1[N+](=O)[O-]
2. O=C(O)c1ccc(-c2nn[nH]n2)cc1

A)
8.7
-11.8

====

assay: NCI Yeast Anticancer Drug Screen. Data for the mlh1 rad18 strain (AID 175); details: S. cerevisiae mlh1 rad18 strain growth inhibition; at 50.0 µM; hits give high values
The panel holds about 79,000 compounds, 15% with a hit somewhere; the sample as a whole holds those more often.
Kindly supply the reported growth inhibition values for the records listed here.
Numbers only, in %.

Count: 3. Required value per item: growth inhibition.
1. COc1cccc(CN(CC(=O)O)S(=O)(=O)c2ccc(C)cc2)c1
2. OCCSCc1cc2c(cc1Br)OCO2
3. Cc1ccc(S(=O)(=O)CC(=O)NC(N)=O)cc1

A)
1: 6.85; 2: 2.15; 3: -7.3

====

Kindly supply the reported growth inhibition values for the records listed here.
Assay: NCI Yeast Anticancer Drug Screen. Data for the rad50 strain (AID 155);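 further: 0% = growth of vehicle-only cultures of the same strain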
Conditions: S. cerevisiae rad50 strain growth inhibition; at 50.0 µM; hits give high values
Protocol: Growth inhibition of yeast strains with defined genetic alterations is measured as a screen for potential anti-cancer activity. Selected strains with alterations in DNA damage repair or cell cycle control were exposed to compounds and growth inhibition was measured relative to vehicle treated controls. The strain used in this assay is rad50
About 79,000 compounds went through this panel and 15% of them were active in at least one assay; those are over-represented in the sample as a whole.
One number for each entry, in %.

CCCCCCCCCCCC(=O)O (tested in a mixture with another compound) ... -15.7

Count: 3. Required value per item: growth inhibition.
1. NC(CCCCN=Cc1nc(-c2ccccc2)oc1O)C(=O)O (stereo unspecified)
2. NC(N)=Nc1cccc2c1CC=CC2
3. O=C1NC(=O)[C@H]2C[C@H]3C(=O)NC(=O)[C@H]3[C@@H]12

A)
[-33.6, 0.2, -0.7]

====

assay: NCI Yeast Anticancer Drug Screen. Data for the mlh1 rad18 strain (AID 175); settings: S. cerevisiae mlh1 rad18 strain growth inhibition; at 50.0 µM; hits give high values
The panel holds about 79,000 compounds, 15% with a hit somewhere; the sample as a whole holds those more often.
Kindly supply the reported growth inhibition values for the records listed here.
One number for each entry, in %.

COc1ccc2c(c1)/C(=C/c1cc(OC)c(OC)c(OC)c1)C(=O)N2 ... 2.85

Count: 4. Required value per item: growth inhibition.
1. Cc1ccc([N+](=O)[O-])cc1NC(=O)C(=O)C1CCC2=C(Sc3ccccc3N2)C1=O (stereo not given)
2. Cc1ccsc1C(=O)c1ccccc1
3. COc1cc(/C=C/c2ccnc3ccccc23)ccc1N(C)C
4. O=C(/C=C/c1ccccc1)[c-]1[c-][c-][c-][c-]1.[Fe].[c-]1[c-][c-][cH-][c-]1

A)
-5.85
5.45
24.7
13.2

====

test: NCI Yeast Anticancer Drug Screen. Data for the bub3 strain (AID 167); conditions: S. cerevisiae bub3 mutant strain, at 50.0 µM, hits give high values
The panel holds about 79,000 compounds, 15% with a hit somewhere; the sample as a whole holds those more often. Activity calls are given as the source filed them. Cut-off read from the data, not from the text of the source: active = growth inhibition above about 70%; inactive = the rest.
Kindly supply the reported growth inhibition values for the records listed here.

CC(C)S1=C2C(=O)CC(C)(C)CC2=Nc2ccccc21 (stereo unspecified) ... 15.8% (inactive)
COC(=O)C(CC(=O)Nc1ccc(Cl)c(Cl)c1)C(=O)C(=O)Nc1ccc(Cl)c(Cl)c1 (stereo unspecified) ... -3.25% (inactive)
CCC(C)NC(=O)Nc1ccccc1 (stereo unspecified) ... -2.45% (inactive)
CC(C)CCCC(C)C1CCC2C3CC=C4CC(O[N+](=O)[O-])CCC4(C)C3CCC12C (stereo unspecified) ... -5.15% (inactive)
O=C1c2cc(Cl)ccc2NC(=NC2CCCC2)C2CSCN12 (stereo unspecified) ... -22.8% (inactive)

Now examine the next entry.
Q) So what's the measured growth inhibition for this one? Cc1cccc2c1CCC21OC(=O)c2c1cc(F)c1ccccc21 (stereo unspecified)
A) 14.5% (inactive)

====

experiment: NCI Yeast Anticancer Drug Screen. Data for the rad50 strain (AID 155);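 further: 0% = growth of vehicle-only cultures of the same strain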; conditions: S. cerevisiae rad50 strain growth inhibition; at 50.0 µM; hits give high values
This is part of a sample that, as a whole, favours compounds with a hit. Of some 79,000 tested, about 15% had one in any assay.
measured_parameter: growth inhibition (%)
One number for each entry, in %.

Completed entries (count: 5):
CC1=C(C(=O)Nc2ccccc2C)C(c2ccccc2)C(C(=O)Nc2ccccc2C)=C(C)N1 ... 10.7
N#C/C(=N\NC(=O)c1ccccc1)c1ccccc1 ... 5.65
COc1cccc(C2C3=C(COC3=O)Oc3cc4c(cc32)OCO4)c1 (stereo not drawn) ... -41.1
CC(=O)N(C)c1ccc(NC(=S)NC(=O)c2cccc([N+](=O)[O-])c2)cc1 ... 3.55
CCC(CCC#N)(CCC#N)C(=O)c1ccc(C)s1 ... 1.5

Count: 7. Required value per item: growth inhibition.
1. CN(C)/C=N/NC(=O)C(O)c1ccccc1 (stereo not drawn)
2. c1ccc(COC2COC(c3ccccc3)OC2)cc1 (stereo not drawn)
3. CCCCCCCCCCCCCCCCCC(=O)OCC1OC(OC2(OC(=O)CCCCCCCCCCCCCCCCC)OC(COC(=O)CCCCCCCCCCCCCCCCC)C(OC(=O)CCCCCCCCCCCCCCCCC)C2OC(=O)CCCCCCCCCCCCCCCCC)C(OC(=O)CCCCCCCCCCCCCCCCC)C(OC(=O)CCCCCCCCCCCCCCCCC)C1OC(=O)CCCCCCCCCCCCCCCCC (stereo not drawn)
4. COc1cc(/C=C/C=C2\CC/C(=C\C=C\c3ccc(O)c(OC)c3)C2=O)ccc1O
5. Clc1nc(-c2ccccc2)nc2ccccc12
6. CC(C)=C1CCC(CN(C)C)C1=O (stereo not drawn)
7. NC(=O)CN(CC(N)=O)CC(N)=O

A)
[10.3, 5.95, 17.2, 10.2, -10.1, 30.4, -0.7]

Count: 6. Required value per item: growth inhibition.
1. Cn1ccc2c([N+](=O)[O-])cccc2c1=O
2. S=C1CC(c2ccccc2)Sc2ccccc2N1 (stereo not drawn)
3. COc1cc(C(=O)Nc2ccc(N3CCCCC3)cc2)cc(OC)c1OC
4. CCn1cc2c(=O)n3ncn(-c4ccc(Br)cc4)c3nc2n1
5. CC(C)(C)OC(=O)Cn1ncn(NC(=O)Cc2ccccc2)c1=S
6. Cc1nc2nncn2c(=O)[nH]1

A)
1. 4.1
2. -1.45
3. 25.1
4. -8.05
5. -27.6
6. 9.35

Count: 4. Required value per item: growth inhibition.
1. COc1ccc(NC(C)=O)cc1C1CCC(=O)N1 (stereo not drawn)
2. BrC1CC1(c1ccccc1)c1ccccc1 (stereo not drawn)
3. C/C(=N/O)c1ccc[cH-]1.[Fe+2].c1cc[cH-]c1
4. OC(c1ccccc1)(c1ccc(-c2ccccc2)cc1)c1cccc2ccccc12 (stereo not drawn)

A)
12.2
0.1
20.1
28.3
